Assay Protocol: Cell Viability - LYMP1-002 - Assay at 24 hr (AID 993)
Reported Conditions: LYMP1-002 lymphoblastoid cells viability; series mostly up to 92.2 µM
Calls of active or inactive are those of the source. The call rests on the fitted dose curve; in most records, active means well fitted cell-killing curve with a large enough effect; inconclusive means small, poorly fitted or top-dose-only effect; inactive means flat fitted curve, though single readings scatter.
Field 'call' accepts active, inactive

A selection of reference data follows.
CC(=O)c1ccc(S(=O)(=O)NC(=O)NC2CCCCC2)cc1 = inactive
O=C1NC(=O)C(c2ccccc2)(c2ccccc2)N1 = inactive
CC(=O)O[C@]1(C(C)=O)CC[C@H]2[C@@H]3C=C(Cl)C4=CC(=O)[C@@H]5C[C@@H]5[C@]4(C)[C@H]3CC[C@@]21C = inactive
O=c1c(-c2ccc(O)cc2)coc2cc(O)ccc12 = inactive
O=c1c(O)c(-c2ccc(O)cc2)oc2cc(O)cc(O)c12 = inactive
CC1=C(/C=C/C(C)=C/C=C/C(C)=C/C(=O)Nc2ccc(O)cc2)C(C)(C)CCC1 = active

Q: What classification did `CCCCC1C(=O)N(c2ccccc2)N(c2ccccc2)C1=O` end up with in this test?
A: inactive

* * *

Tested on: CP237
Assay Protocol: qHTS profiling for inhibitors of Plasmodium falciparum proliferation (AID 504749);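 further: 0% = DMSO vehicle and full inhibition = artemisinin control; nearly all actives have a fitted effect of over 60% in size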
Reported Conditions: P. falciparum in erythrocytes, SYBR Green DNA, 72 h; series mostly up to 28.7 µM
Records with an inconclusive call do not appear. Activity calls are given as the source filed them. Calls follow the shape of the dose curve; as a rule, active = well fitted inhibition curve with a large enough effect; inconclusive = small, poorly fitted or top-dose-only effect; inactive = flat fitted curve, though single readings scatter.
Measured Attribute: outcome

CC(=O)c1ccc(S(=O)(=O)NC(=O)NC2CCCCC2)cc1 = inactive
O=C1NCC2(CCN(CCc3ccccc3)CC2)O1 = inactive
O=C(O)Cc1cccc2ccccc12 = inactive
CCCCCN(C)CCC(O)(P(=O)(O)O)P(=O)(O)O = inactive

So the reported outcome for `O=C(O)c1c(Cl)c(Cl)c(Cl)c(Cl)c1-c1c2cc(I)c(=O)c(I)c-2oc2c(I)c(O)c(I)cc12` , on CP237, turned out to be inactive

* * *

Assay Protocol: qHTS of pediatric cancer cell lines to identify multiple opportunities for drug repurposing: Primary screen for Saos-2 cells (AID 1347097); further: nearly all actives have a fitted effect of over 40% in size; further: potency means the concentration at half of the fitted maximal effect
Reported Conditions: Saos-2 viability, CellTiter-Glo ATP luminescence, 48 h; series mostly up to 46 µM
Results filed as inconclusive are left out. Activity calls are given as the source filed them. The call rests on the fitted dose curve; in most records, active means well fitted cell-killing curve with a large enough effect; inconclusive means small, poorly fitted or top-dose-only effect; inactive means no such curve, though single readings can be large or run the other way.
Measured Attribute: Potency

C=C1C(=O)OC2C=C(C)CCC=C(C)CCC12 (stereo unspecified) = 33.2 µM (active)
O=c1cc(-c2ccccc2)oc2cc(O)c(O)c(O)c12 = 18.7 µM (active)
NCCS = inactive
CCC(CC)[C@H](NC(C)=O)[C@@H]1[C@H](O)[C@@H](C(=O)O)C[C@@H]1N=C(N)N = inactive

Record summary for `CC(C)[C@H](CO)Nc1nc(Nc2ccc(C(=O)O)c(Cl)c2)c2ncn(C(C)C)c2n1` : reported Potency = 18.7 µM (active)

Record summary for `CC(=O)N[C@@H](CS)C(=O)O` : reported Potency = inactive

* * *

Assay Protocol: qHTS of pediatric cancer cell lines to identify multiple opportunities for drug repurposing: Primary screen for MG 63 (6-TG R) cells (AID 1347105); further: nearly all actives have a fitted effect of over 50% in size
Reported Conditions: MG 63 (6-TG R) viability, CellTiter-Glo, 48 h; series mostly up to 46 µM
Procedure: Drug repurposing or repositioning has been offered as a strategy for drug development in oncology programs. This approach has special potential for childhood cancers and other rare or orphan diseases, where the expected return on new drug development has been a disincentive to pharmaceuticals. […] We employed a titration-based paradigm (quantitative high-throughput screening or qHTS), where all compounds were tested at multiple concentrations for their effect on cell viability. […]
Results filed as inconclusive are left out. Activity calls are given as the source filed them. The call rests on the fitted dose curve; in most records, active means well fitted cell-killing curve with a large enough effect; inconclusive means small, poorly fitted or top-dose-only effect; inactive means no such curve, though single readings can be large or run the other way.
Field 'call' accepts 1.0 = active, 0.0 = inactive

A selection of reference data follows.
CC[C@@]1(O)C[C@H](O[C@H]2C[C@H](N(C)C)[C@H](O[C@H]3C[C@H](O)[C@H](O[C@H]4CCC(=O)[C@H](C)O4)[C@H](C)O3)[C@H](C)O2)c2c(cc3c(c2O)C(=O)c2c(O)cccc2C3=O)[C@@H]1C(=O)OC = 0.0
Clc1ccc(C(c2ccc(Cl)cc2)n2cc[n+](CC(OCc3ccc(Cl)cc3Cl)c3ccc(Cl)cc3Cl)c2)cc1 (stereo unspecified) = 1.0
CC(C)C(=O)Oc1ccc(CO)cc1[C@H](CCN(C(C)C)C(C)C)c1ccccc1 = 0.0
Nc1ncnc2ccccc12 = 0.0
C[C@H]1[C@H](NC(=O)C(=NOC(C)(C)C(=O)O)c2csc(N)n2)C(=O)N1S(=O)(=O)O = 0.0

Q: What classification did C=C1C(=O)OC(CCCCCCCC)C1C(=O)O (stereo unspecified) end up with in this test?
A: 0.0

Q: What classification did `O=C1NC(=O)C(=Cc2cccc(C(F)(F)F)c2)S1` end up with in this test?
A: 0.0

Q: What classification did `CO[C@H]1C[C@@H]2CC[C@@H](C)[C@@](O)(O2)C(=O)C(=O)N2CCCC[C@@H]2C(=O)O[C@H]([C@H](C)C[C@@H]2CC[C@H](OCCO)[C@H](OC)C2)CC(=O)[C@H](C)C=C(C)[C@@H](O)[C@@H](OC)C(=O)[C@H](C)C[C@H](C)C=CC=CC=C1C` end up with in this test?
A: 0.0

Hey, just so you know, these numbers are from PubChem BioAssay (NCATS).
